Test: method code SF-HPLC, from DOI: 10.1002/qsar.200300824
Measure: logP

{"Molecule": "O=c1cc(-c2noc(-c3ccccc3)n2)c2ccccc2o1", "Value": 3.22}
{"Molecule": "O=c1cc(-c2ncon2)c2ccccc2o1", "Value": 1.95}
{"Molecule": "Cc1ccc(NC(=NO)c2c(Cl)c(=O)oc3ccccc23)cc1", "Value": 2.89}

1. COc1ccc(C2=NOC(c3cc(=O)oc4ccccc34)O2)cc1 (stereo not drawn)
2. Cc1nc(-c2cc(=O)oc3ccccc23)no1
3. O=c1oc2ccccc2c(C(CCO)=NO)c1Cl
4. CC(=O)ON=C(N)c1cc(=O)oc2ccccc12
Query: List by increasing logP. Reply format: the labels, ordered as requested.
Result: 3, 4, 2, 1

a. COc1ccc(-c2noc(-c3cc(=O)oc4ccccc34)n2)cc1
b. CC1NC(c2cc(=O)oc3ccccc23)=NO1 (stereo not drawn)
Query: Pick one, a or b : lowest reported logP. Write down the label of the entry you select.
Result: b

###

Assay: method code SF-HPLC, from DOI: 10.1002/qsar.200300824
Measure: logP

Worked cases, answers included:
{"Compound": "O=c1cc(C2=NOCN2)c2ccccc2o1", "Value": 1.98}
{"Compound": "O=c1oc2ccccc2c(C(=NO)Nc2ccccc2)c1Cl", "Value": 2.58}
{"Compound": "O=c1cc(C2=NOCN2c2ccccc2)c2ccccc2o1", "Value": 2.45}
{"Compound": "COc1ccc(-c2nc(-c3cc(=O)oc4ccccc34)no2)cc1", "Value": 2.98}
{"Compound": "O=c1oc2ccccc2c(C(=NO)NC2CCCCC2)c1Cl", "Value": 2.78}

1. O=c1cc(C2=NOS(=O)N2c2ccccc2)c2ccccc2o1 (centres undefined)
2. O=c1cc(C=NNc2ccccc2)c2ccccc2o1
Query: Could you please tell me which of these two has the higher logP: 1 or 2 ? Write down the label of the entry you select.
Result: 2
(2: 3.63, 1: 2.16)

Where do the numbers come from? From the SangsterLogP compilation.
